Cited source: ChEMBL document CHEMBL5120967

test: Anti-osteoporosis activity C57/BL6 mouse bone marrow macrophage cells assessed as inhibition of RANKL-induced osteoclastogenesis at 1 uM measured after 5 to 6 days in presence of M-CSF and RNKL by TRAP staining microscopic analysis; assay type: functional, BMDM; parameters: scale not given: the % may be the effect or the level left; conditions: time 5-6 day
Please respond with reported Activity for every item in the list.

* O=C(NC1CC1)c1cc2c([nH]c3ccccc32)c(CCc2ccccc2)n1 | 0%
* Cc1cccc(C)c1NC(=O)c1cc2c([nH]c3ccccc32)c(CCC2CCCCC2)n1 | 52.8%
* Cc1cccc(C)c1NC(=O)c1cc2c([nH]c3ccccc32)c(CCc2cccc(O)c2)n1 | 0%
* Cc1cccc(C)c1NC(=O)c1cc2c([nH]c3ccccc32)c(CCc2ccccc2O)n1 | 36%

For Cc1cccc(C)c1NC(=O)c1cc2c([nH]c3ccccc32)c(CCc2ccc(P(C)(C)=O)cc2)n1 , what is its reported Activity? 81.6%

----------
system: BMDM; assay: Cytotoxicity against C57/BL6 mouse bone marrow macrophage cells assessed as reduction in cell viability at 10 uM incubated for 3 days by CCK8 assay; type: toxicity, cell-based; settings: 72 h, time 3 day
Please respond with reported Cell viability for every item in the list.

# annotated cases, reported Cell viability shown
- Cc1cccc(C)c1NC(=O)c1cc2c([nH]c3ccccc32)c(CCC2CCCCC2)n1: > 100%
- Cc1cccc(C)c1NC(=O)c1cc2c([nH]c3ccccc32)c(CCc2cccc(F)c2)n1: > 100%
- O=C(Nc1cccnc1)c1cc2c([nH]c3ccccc32)c(CCc2ccccc2)n1: > 100%
- Cc1ccc(CCc2nc(C(=O)Nc3c(C)cccc3C)cc3c2[nH]c2ccccc23)cc1: > 100%

Now look at this entry.
For Cc1cccc(C)c1NC(=O)c1cc2c([nH]c3ccccc32)c(CCc2ccccc2O)n1 , what is its reported Cell viability? 87.1%

----------
test system: BMDM; assay: Cytotoxicity against C57/BL6 mouse bone marrow macrophage cells assessed as reduction in cell viability at 10 uM incubated for 3 days by CCK8 assay; type: toxicity, cell-based; details: 72 h, time 3 day
Measured Parameter: Cell viability (%)
One number for each entry, in %.

- Cc1cccc(C)c1NC(=O)c1cc2c([nH]c3ccccc32)c(CCc2cccnc2)n1: 51.2
- Cc1cccc(C)c1NC(=O)c1cc2c([nH]c3ccccc32)c(CCc2ccc(O)cc2)n1: 76.9

Now look at this entry.
For Cl.O=C(NC1CCNCC1)c1cc2c([nH]c3ccccc32)c(CCc2ccccc2)n1 , what is its reported Cell viability? 47.9

----------
assay: Anti-osteoporosis activity C57/BL6 mouse bone marrow macrophage cells assessed as inhibition of RANKL-induced osteoclastogenesis at 1 uM measured after 5 to 6 days in presence of M-CSF and RNKL by TRAP staining microscopic analysis; type: functional, BMDM; design: scale not given: the % may be the effect or the level left; settings: time 5-6 day
Please respond with reported Activity for every item in the list.
Answers are plain numbers, in %.

* O=C(Nc1ncc[nH]1)c1cc2c([nH]c3ccccc32)c(CCc2ccccc2)n1 | 78.9
* Cc1cccc(C)c1NC(=O)c1cc2c([nH]c3ccccc32)c(CCc2ccc(C#N)cc2)n1 | 79.5
* COC(=O)c1ccc(CCc2nc(C(=O)Nc3c(C)cccc3C)cc3c2[nH]c2ccccc23)cc1 | 77.6
* CNc1ccc(CCc2nc(C(=O)Nc3c(C)cccc3C)cc3c2[nH]c2ccccc23)cc1 | 37.9
* Cc1cc2occ(CN(C)CCN(C)Cc3cn(-c4cccc(C(F)(F)F)c4)c4ccccc34)c(=O)c2cc1C | 56.1

Below are 2 compounds. Give each one its Activity.
1. Cc1cccc(C)c1NC(=O)c1cc2c([nH]c3ccccc32)c(CCc2ccc(N(C)C)cc2)n1
2. Cl.O=C(NC1CCNCC1)c1cc2c([nH]c3ccccc32)c(CCc2ccccc2)n1

[54.7, 0]
